Values compiled from ChEMBL document CHEMBL1128809.

molecular target: Protein kinase C beta type (Homo sapiens); test: Inhibition of Protein kinase C beta 1
Sequence (P05771 whole entry): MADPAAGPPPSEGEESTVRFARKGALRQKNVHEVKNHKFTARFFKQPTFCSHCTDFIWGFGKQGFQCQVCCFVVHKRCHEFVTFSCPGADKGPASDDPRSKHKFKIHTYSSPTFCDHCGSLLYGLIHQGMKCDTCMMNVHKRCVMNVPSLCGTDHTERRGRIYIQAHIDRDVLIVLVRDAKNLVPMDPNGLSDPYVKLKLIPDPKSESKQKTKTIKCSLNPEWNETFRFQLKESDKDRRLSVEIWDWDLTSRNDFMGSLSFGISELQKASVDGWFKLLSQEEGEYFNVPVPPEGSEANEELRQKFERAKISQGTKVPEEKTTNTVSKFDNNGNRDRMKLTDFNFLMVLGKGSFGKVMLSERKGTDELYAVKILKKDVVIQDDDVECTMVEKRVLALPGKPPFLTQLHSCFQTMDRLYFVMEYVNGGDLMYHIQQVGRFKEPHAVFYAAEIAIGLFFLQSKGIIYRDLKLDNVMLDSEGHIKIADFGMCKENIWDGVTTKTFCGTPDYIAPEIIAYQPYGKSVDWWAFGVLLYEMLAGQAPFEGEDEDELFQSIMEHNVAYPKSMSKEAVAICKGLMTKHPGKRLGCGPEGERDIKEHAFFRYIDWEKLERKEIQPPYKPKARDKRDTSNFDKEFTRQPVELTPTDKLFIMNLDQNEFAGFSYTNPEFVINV
Observation Type: IC50 (nM)

{"Molecule": "O=C(N[C@@H]1CCC[C@H]1OCc1cc(O)c(C(=O)c2c(O)cccc2C(=O)O)c(O)c1)c1ccc(O)cc1", "Observation Type": "IC50", "Unit": "nM", "Result Value": 430}

a = O=C(N[C@@H]1CNCCC[C@H]1OC(=O)c1cc(O)c(C(=O)c2c(O)cccc2C(=O)O)c(O)c1)c1ccc(O)cc1 [BALANOL]
b = O=C(N[C@@H]1CNCCC[C@H]1OC(=O)c1cc(O)c(C(=O)c2c(O)cccc2C(=O)O)c(O)c1)c1ccc(O)cc1 (racemic) [BALANOL]
Req: Just curious, which one has the larger IC50 reading, a or b ? Your choice should be expressed through its label.
Resp: b
(b: 30 nM, a: 10 nM)
